# Read-out: CD38, CD38 (gene 952)
# assay comment: BSK_SAg_CD38: BioMAP Diversity Plus: SAg Assay for CD38 Biomarker Activity (AID 2283087)
# condition info: primary human HUVEC with PBMC; actives raise or lower the signal
Activity calls are given as the source filed them. How the source made its calls: active means hit-call score of the fitted dose curve at least 0.9, where 1 is the maximum; inactive means score below 0.9.
Please answer using one outcome listed in 1.0 for active, 0.0 for inactive

INPUT: GET /call?item= CC[Si](OC(C)=O)(OC(C)=O)OC(C)=O returns the recorded outcome of this test.
OUTPUT: 0.0

INPUT: Next molecule up: BrC1CCC(Br)C(Br)CCC(Br)C(Br)CCC1Br (configuration not stated)
OUTPUT: 1.0

* * *

# assay comment: CEETOX_H295R_11DCORT: CeeTox H295R High-throughput Steroidogenesis Assay for 11-Deoxycortisol (11DCORT) (AID 2283432)
# condition info: actives raise or lower the signal
Calls of active or inactive are those of the source. Rule for the calls: active = hit-call score of the fitted dose curve at least 0.9, where 1 is the maximum; inactive = score below 0.9.
Please answer using one outcome listed in active, inactive

INPUT: GET /call?item= O=c1cc(-c2ccccc2)oc2cc(O)cc(O)c12 returns the recorded outcome of this test.
OUTPUT: inactive

INPUT: Next compound up: NC(=O)Nc1ccc(Cl)cc1
OUTPUT: inactive

* * *

# assay comment: TOX21_p53_BLA_p2_viability: Viability Assessment in the Tox21 HCT-116 p53 Agonism Beta-lactamase Assay, Phase 2 (AID 2283591);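 further: compound exposure lasted 16 h at 37 °C; actives lower the ATP signal meaning cytotoxicity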
Records with an inconclusive call do not appear. Active and inactive are the calls of the source. The calls were made as follows: active = hit-call score of the fitted dose curve at least 0.9, where 1 is the maximum; inconclusive = response in the unintended direction; inactive = score below 0.9.
Please answer using one outcome listed in active, inactive

CCN(CC)c1ccc(C(=C2C=CC(=[N+](CC)CC)C=C2)c2ccc(S(=O)(=O)O)cc2S(=O)(=O)[O-])cc1: active

Next compound, please.
INPUT: GET /call?item= CC(=O)Nc1ccccc1O returns the recorded outcome of this test.
OUTPUT: inactive

* * *

# Read-out: Actin alpha 1 (ACTA1), ACTA1 (gene 58)
# assay comment: BSK_MyoF_ACTA1: BioMAP Diversity Plus: MyoF Assay for Actin alpha 1 (ACTA1) Biomarker Activity (AID 2284244)
# condition info: primary human lung fibroblasts
Calls of active or inactive are those of the source. How the source made its calls: active means hit-call score of the fitted dose curve at least 0.9, where 1 is the maximum; inactive means score below 0.9.
Please answer using one outcome listed in Yes (active), No (inactive)

Please review the entries below; each comes with its answer.
CCc1c(C)cc(N)c(CC)c1N: No
C#C[C@]1(O)CC[C@H]2[C@@H]3CCC4=Cc5oncc5C[C@]4(C)[C@H]3CC[C@@]21C: No
O=C1CCCCCCCCCCCCCCO1: Yes
Nc1cc([N+](=O)[O-])ccc1Cl: No
CCn1c2ccccc2c2cc(N)ccc21: No
CC(=O)Nc1ccccc1O: No

Next compound, please.
INPUT: GET /call?item= COC(=O)c1ccc(C)cc1 returns the recorded outcome of this test.
OUTPUT: No

* * *

# assay comment: ATG_NF_kB_CIS: Attagene CIS-FACTORIAL HepG2 Assay for human Nuclear Factor Kappa B (NF-kB) (AID 2282991)
# condition info: HepG2 Attagene cis-factorial NF-kB reporter mRNA; actives raise or lower the signal
Activity calls are given as the source filed them. The calls were made as follows: active = hit-call score of the fitted dose curve at least 0.9, where 1 is the maximum; inactive = score below 0.9.
Please answer using one outcome listed in T = active, F = inactive

Please review the entries below; each comes with its answer.
CCCCN: F
N#Cc1ccccc1: F
O=C(O)c1cccc([N+](=O)[O-])c1: F
CC[C@]12CCCN3CCc4c(n(c5ccccc45)[C@@](O)(C(=O)OC)C1)[C@@H]32: T
CC1(C)OC[C@@H]2O[C@@]3(C(=O)O)OC(C)(C)O[C@H]3[C@@H]2O1: F

Next molecule, please.
INPUT: GET /call?item= CCC(=O)OCCC(C)CCC=C(C)C (stereo not drawn) returns the recorded outcome of this test.
OUTPUT: F

Data provenance is PubChem BioAssay (EPA / NIEHS).
